system: 3T3 cell line; experiment: Cytotoxicity against normal 3T3 cell line by MTT assay; format: cell-based; settings: at 150 µM concentration, 3T3, MTT

# Given smiles, cytotoxicity against normal cell line
data = [
    ("O=C(NN=Cc1cn(-c2ccccc2)nc1-c1ccc(Br)cc1)c1cc2ccccc2o1", "noncytotoxic"),
    ("O=C(NN=Cc1cn(-c2ccccc2)nc1-c1ccc([N+](=O)[O-])cc1)c1cc2ccccc2o1", "noncytotoxic"),
    ("Cc1ccc(-n2cc(C=NNC(=O)c3cc4ccccc4o3)c(-c3ccc(Br)cc3)n2)cc1", "noncytotoxic"),
    ("COc1ccc(-c2nn(-c3ccc(C)cc3)cc2C=NNC(=O)c2cc3ccccc3o2)cc1", "noncytotoxic"),
]

* * *

target: α-glucosidase enzyme (from Saccharomyces cerevisiae, EC3.2.1.20) (Saccharomyces cerevisiae); construct: purchased Sigma Chemical Co. (St. Louis, USA); test: biochemical; format: biochemical; conditions: mean ± SD, at least three experiments; substrate p-nitrophenyl-α-glucopyranoside; read-out: IC50 α-glucosidase inhibitory activity
Sequence (P53341 whole entry): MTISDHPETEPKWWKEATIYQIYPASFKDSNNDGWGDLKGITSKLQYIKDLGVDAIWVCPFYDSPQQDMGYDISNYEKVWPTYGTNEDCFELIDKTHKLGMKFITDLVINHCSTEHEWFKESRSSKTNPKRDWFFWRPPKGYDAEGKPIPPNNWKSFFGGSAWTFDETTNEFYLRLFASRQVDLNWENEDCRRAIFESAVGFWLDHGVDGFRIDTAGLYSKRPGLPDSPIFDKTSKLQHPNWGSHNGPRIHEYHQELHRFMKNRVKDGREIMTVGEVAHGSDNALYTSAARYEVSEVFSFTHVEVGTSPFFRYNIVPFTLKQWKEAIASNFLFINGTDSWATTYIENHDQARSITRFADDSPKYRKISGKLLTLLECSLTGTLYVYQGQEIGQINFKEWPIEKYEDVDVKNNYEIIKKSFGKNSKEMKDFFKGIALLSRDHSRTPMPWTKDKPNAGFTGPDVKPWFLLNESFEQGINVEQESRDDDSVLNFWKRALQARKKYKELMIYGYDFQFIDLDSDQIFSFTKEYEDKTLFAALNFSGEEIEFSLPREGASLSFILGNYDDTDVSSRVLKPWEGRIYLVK
Value kind: IC50 (µM)

# Compound, Display unit, Recorded number
rows = [
    ("O=C(NN=Cc1cn(-c2ccccc2)nc1-c1ccc([N+](=O)[O-])cc1)c1cc2ccccc2o1 [8e]", "µM", 40.6),
]
